Where do the numbers come from? From the supplement of paper PMC10567573.

B1: C1orf55 (parent)
chain: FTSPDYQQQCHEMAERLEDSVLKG

# Variants of: B1
# Test method notes: protein stability index of a GFP-peptide fusion (GPS, HEK-293T) (PSI 1-6); higher = more stable;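 note: lentivirally expressed fusions sorted by FACS into six bins by GFP to DsRed ratio, PSI derived from sequencing read proportions per bin multiplied by bin number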
# Condition description: c terminus: a fixed tail appended
Value type: protein stability index
Please respond with just the number, no unit label.

Request: Specify measured protein stability index for `Y6H` .
Response: 4.48

Request: Specify measured protein stability index for `D5M` .
Response: 2.12

Request: Specify measured protein stability index for `Y6S` .
Response: 4.63

Request: Specify measured protein stability index for `E18L` .
Response: 1.76

Request: Specify measured protein stability index for `L17G` .
Response: 2.54

Request: Specify measured protein stability index for `S20W` .
Response: 2.08

Request: Specify measured protein stability index for `S20F` .
Response: 1.85

Request: Specify measured protein stability index for `D5C` .
Response: 3.59

Request: Specify measured protein stability index for `E12R` .
Response: 1.87

Request: Specify measured protein stability index for `S3L` .
Response: 3.23

Request: Specify measured protein stability index for `Q8I` .
Response: 1.63
